Target: HLA-A*02:01
Assay: IEDB peptide-MHC binding, purified MHC/competitive/fluorescence; filed as Kd, often an IC50 or EC50 that approximates it; bounds were set here for any values at or beyond the usual limits of such assays
Details: source organism: Vaccinia virus Copenhagen
pKd: −log10 of the molar value.
measured.property: pKd

{"chain.sequence": "KLGFEEIKGL", "measured.property": "pKd", "lt.gt.eq": "=", "value": 7.51}
{"chain.sequence": "YTDLTYQSF", "measured.property": "pKd", "lt.gt.eq": "≤", "value": 4.70}

---

Target: HLA-B*27:03
Test: IEDB peptide-MHC binding, purified MHC/competitive/fluorescence; filed as Kd, often an IC50 or EC50 that approximates it; bounds were set here for any values at or beyond the usual limits of such assays
Conditions: source organism: Rattus norvegicus

{"chain.sequence": "FLRKNQRAL", "Kd": "≥ 20 µM"}

---

Biological target: HLA-B*08:03
Assay: IEDB peptide-MHC binding, purified MHC/direct/fluorescence; filed as Kd, often an IC50 or EC50 that approximates it; bounds were set here for any values at or beyond the usual limits of such assays
Settings: source organism: Mycobacterium tuberculosis str. Haarlem

{"chain.sequence": "KLVGIELPK", "Kd": "≥ 20 µM"}

---

Biological target: HLA-B*40:13
Assay: IEDB peptide-MHC binding, purified MHC/competitive/fluorescence; filed as Kd, often an IC50 or EC50 that approximates it; bounds were set here for any values at or beyond the usual limits of such assays
Conditions: source organism: Vibrio vulnificus YJ016
measured.property: Kd

{"chain.sequence": "YQRALHTSI", "system.under.test": "HLA-B*40:13", "value": "60.8 nM"}

---

Biological target: HLA-A*02:03
Test: IEDB peptide-MHC binding, purified MHC/competitive/radioactivity; filed as Kd, often an IC50 or EC50 that approximates it; bounds were set here for any values at or beyond the usual limits of such assays
Details: source organism: Hepatitis C virus (isolate Th580)
pKd: −log10 of the molar value.
measured.property: pKd

{"chain.sequence": "VLSDFKTWL", "measured.property": "pKd", "value": 6.54}

---

Target: HLA-A*33:01
Assay: IEDB peptide-MHC binding, purified MHC/competitive/radioactivity; filed as Kd, often an IC50 or EC50 that approximates it; bounds were set here for any values at or beyond the usual limits of such assays
Conditions: source organism: Lymphocytic choriomeningitis virus (strain Armstrong)
pKd: −log10 of the molar value.

{"chain.sequence": "VTMFEALPH", "pKd": "≤ 4.11"}

---

Target: HLA-A*32:15
Experiment: IEDB peptide-MHC binding, purified MHC/competitive/fluorescence; filed as Kd, often an IC50 or EC50 that approximates it; bounds were set here for any values at or beyond the usual limits of such assays
Settings: source organism: Staphylococcus aureus subsp. aureus N315
measured.property: Kd (nM)

{"chain.sequence": "MVIKWIHER", "measured.property": "Kd", "value": 52.5}

---

Target: HLA-A*68:02
Test: IEDB peptide-MHC binding, purified MHC/direct/fluorescence; filed as Kd, often an IC50 or EC50 that approximates it; bounds were set here for any values at or beyond the usual limits of such assays
Settings: source organism: Choclo virus

{"chain.sequence": "LRYGNVLDV", "system.under.test": "HLA-A*68:02", "Kd": "≥ 20 µM"}

---

Molecular target: HLA-A*11:01
Experiment: IEDB peptide-MHC binding, purified MHC/competitive/fluorescence; filed as Kd, often an IC50 or EC50 that approximates it; bounds were set here for any values at or beyond the usual limits of such assays
Conditions: source organism: Brucella canis ATCC 23365

{"chain.sequence": "ETVWPFFYA", "system.under.test": "HLA-A*11:01", "Kd": "≥ 5 µM"}

---

Molecular target: HLA-A*03:01
Test: IEDB peptide-MHC binding, purified MHC/competitive/radioactivity; filed as Kd, often an IC50 or EC50 that approximates it; bounds were set here for any values at or beyond the usual limits of such assays
Settings: source organism: Mammarenavirus juninense
pKd: −log10 of the molar value.

{"chain.sequence": "NYTKFWYVNH", "pKd": "≤ 4.15"}

---

Molecular target: HLA-A*02:03
Assay: IEDB peptide-MHC binding, purified MHC/competitive/radioactivity; filed as Kd, often an IC50 or EC50 that approximates it; bounds were set here for any values at or beyond the usual limits of such assays
Conditions: source organism: Lassa virus Josiah

{"chain.sequence": "LTYSQLMTL", "system.under.test": "HLA-A*02:03", "Kd (nM)": 7.81}

---

Target: HLA-B*40:01
Experiment: IEDB peptide-MHC binding, purified MHC/competitive/radioactivity; filed as Kd, often an IC50 or EC50 that approximates it; bounds were set here for any values at or beyond the usual limits of such assays
Settings: source organism: Mammarenavirus brazilense

{"chain.sequence": "YDQLLDSSL", "unit.annotation": "µM", "Kd": 9.99}
{"chain.sequence": "HENKNATWCL", "unit.annotation": "µM", "Kd": 0.915}
{"chain.sequence": "REIGSLLHGL", "unit.annotation": "µM", "Kd": 9.19}

---

Target: HLA-A*02:01
Experiment: IEDB peptide-MHC binding, purified MHC/direct/fluorescence; filed as Kd, often an IC50 or EC50 that approximates it; bounds were set here for any values at or beyond the usual limits of such assays
Conditions: source organism: Burkholderia mallei
Each record here notes measured Kd.

{"chain.sequence": "AVAVARVAA", "Kd": "≥ 20 µM"}
{"chain.sequence": "APAKKAAAK", "Kd": "≥ 20 µM"}
{"chain.sequence": "MQQAYQCIV", "Kd": "0.0865 µM"}

---

Biological target: HLA-B*15:01
Assay: IEDB peptide-MHC binding, purified MHC/competitive/fluorescence; filed as Kd, often an IC50 or EC50 that approximates it; bounds were set here for any values at or beyond the usual limits of such assays
Details: source organism: Homo sapiens
pKd: −log10 of the molar value.
Some sequences, each annotated with its measured pKd.

{"chain.sequence": "LMQCWQLLA", "pKd": "≤ 4.70"}
{"chain.sequence": "FRHSVVVPY", "pKd": 6.50}
{"chain.sequence": "WMFRIRIIL", "pKd": "≤ 4.70"}

---

Biological target: HLA-A*11:01
Assay: IEDB peptide-MHC binding, purified MHC/competitive/fluorescence; bounds were set here for any values at or beyond the usual limits of such assays
Details: source organism: Zaire ebolavirus
Attribute: IC50
measured.property: IC50

{"chain.sequence": "LITGGRRTR", "value": "≥ 93.3 µM"}
{"chain.sequence": "GEESASSGK", "value": "≥ 314 µM"}
{"chain.sequence": "ATISTSPQS", "value": "17.5 µM"}
{"chain.sequence": "GTNTTTEDH", "value": "≥ 76.9 µM"}
{"chain.sequence": "SGYYSTTIR", "value": "0.903 µM"}

---

Quick reference: Kd of the listed items.
Target: HLA-A*68:01
Experiment: IEDB peptide-MHC binding, purified MHC/competitive/radioactivity; filed as Kd, often an IC50 or EC50 that approximates it; bounds were set here for any values at or beyond the usual limits of such assays
Conditions: source organism: SARS coronavirus Tor2

{"chain.sequence": "ATNNVFRLK", "system.under.test": "HLA-A*68:01", "Kd": "11.6 nM"}
{"chain.sequence": "SLRCGACIRR", "system.under.test": "HLA-A*68:01", "Kd": "915 nM"}
{"chain.sequence": "NQLESKVSGK", "system.under.test": "HLA-A*68:01", "Kd": "6960 nM"}
{"chain.sequence": "SASAFFGMSR", "system.under.test": "HLA-A*68:01", "Kd": "10 nM"}
{"chain.sequence": "SQASSRSSSR", "system.under.test": "HLA-A*68:01", "Kd": "400 nM"}
{"chain.sequence": "LFCLLNRYFR", "system.under.test": "HLA-A*68:01", "Kd": "251 nM"}
{"chain.sequence": "TAFQHQNSKK", "system.under.test": "HLA-A*68:01", "Kd": "16.1 nM"}
{"chain.sequence": "AMDEFIQRY", "system.under.test": "HLA-A*68:01", "Kd": "≥ 77700 nM"}
{"chain.sequence": "FLYLYALIY", "system.under.test": "HLA-A*68:01", "Kd": "≥ 44400 nM"}
{"chain.sequence": "RLISMMGFK", "system.under.test": "HLA-A*68:01", "Kd": "716 nM"}
{"chain.sequence": "SVKSFEIDK", "system.under.test": "HLA-A*68:01", "Kd": "729 nM"}
{"chain.sequence": "NAFNCTFEY", "system.under.test": "HLA-A*68:01", "Kd": "9.72 nM"}
{"chain.sequence": "QMAPVSAMVR", "system.under.test": "HLA-A*68:01", "Kd": "157 nM"}
{"chain.sequence": "IIMRCWLCWK", "system.under.test": "HLA-A*68:01", "Kd": "0.903 nM"}
{"chain.sequence": "MQTMLFTMLR", "system.under.test": "HLA-A*68:01", "Kd": "1.1 nM"}
{"chain.sequence": "AQPLPQRQK", "system.under.test": "HLA-A*68:01", "Kd": "3030 nM"}
{"chain.sequence": "VVSTGYHFR", "system.under.test": "HLA-A*68:01", "Kd": "7.34 nM"}
{"chain.sequence": "ASGNLLLDK", "system.under.test": "HLA-A*68:01", "Kd": "≥ 38100 nM"}
{"chain.sequence": "AVHECFVKR", "system.under.test": "HLA-A*68:01", "Kd": "79.6 nM"}
{"chain.sequence": "VVQRCASNK", "system.under.test": "HLA-A*68:01", "Kd": "≥ 48300 nM"}
{"chain.sequence": "MSYYCKSHK", "system.under.test": "HLA-A*68:01", "Kd": "55.3 nM"}
{"chain.sequence": "QQVVDADSK", "system.under.test": "HLA-A*68:01", "Kd": "≥ 65800 nM"}
{"chain.sequence": "LLFQLCTFTK", "system.under.test": "HLA-A*68:01", "Kd": "66.3 nM"}
